# procedureDetails: Tissue distribution after single oral PU-48 SNEDDS
# Format: in vivo
# cond: plasma; 0.5 h, rat, oral PU-48 SNEDDS 12 mg/kg; read-out: Concentration of PU-48 in plasma
assayEndpoint: concentration at 0.5 h (ng/mL)
Reply numerically in ng/mL, unit not repeated.

Sure, the documented concentration at 0.5 h for `COC(=O)c1sc2nc3ccc(OC)cc3cc2c1N` is 277

----------
# procedureDetails: Plasma pharmacokinetics after single oral PU-48 SNEDDS
# Format: in vivo, rat
# cond: rat, plasma, po, 3 mg/kg, rat plasma, oral PU-48 SNEDDS 3 mg/kg, n=6; read-out: Tmax
assayEndpoint: Tmax
Kindly format the answer as number then unit.

Quick note, Tmax for `COC(=O)c1sc2nc3ccc(OC)cc3cc2c1N` landed at 1.2 h

----------
# procedureDetails: Tissue distribution after single oral PU-48 SNEDDS
# Assay type: in vivo
# cond: male, testicle; 1 h, rat, oral PU-48 SNEDDS 12 mg/kg; read-out: Concentration of PU-48 in testicle
# Protocol: Internal standard (IS, 25 μL) was added to 50 μL plasma, urine, or bile sample in a clean tube, placed into a water bath at 37 °C, and dried under a gentle stream of nitrogen gas, followed by the addition of 0.5 mL of ethyl acetate for liquid-liquid extraction. The mixture was shaken by a vortex mixer for 3 min, and then centrifuged at 8000 rpm (4200× g) for 10 min at 4 °C. After centrifugation, the upper organic phase was transferred into a clean centrifuge tube and then dried it again. […]
assayEndpoint: concentration at 1 h (ng/g)
Just the number please, in ng/g, no unit attached.

Reported concentration at 1 h for `COC(=O)c1sc2nc3ccc(OC)cc3cc2c1N` was 51.7

----------
# procedureDetails: Tissue distribution after single oral PU-48 SNEDDS
# Assay type: in vivo
# cond: brain; 12 h, rat, oral PU-48 SNEDDS 12 mg/kg; read-out: Concentration of PU-48 in brain
assayEndpoint: concentration at 12 h

Entry COC(=O)c1sc2nc3ccc(OC)cc3cc2c1N [PU-48] ; concentration at 12 h = 1.7 ng/g

----------
# procedureDetails: Tissue distribution after single oral PU-48 SNEDDS
# Assay type: in vivo
# cond: spleen; 0.5 h, rat, oral PU-48 SNEDDS 12 mg/kg; read-out: Concentration of PU-48 in spleen
assayEndpoint: concentration at 0.5 h (ng/g)
Provide the reading as a plain figure in ng/g.

Entry `COC(=O)c1sc2nc3ccc(OC)cc3cc2c1N` , concentration at 0.5 h reported as 266

----------
# procedureDetails: Tissue distribution after single oral PU-48 SNEDDS
# Format: in vivo
# cond: muscle; 12 h, rat, oral PU-48 SNEDDS 12 mg/kg; read-out: Concentration of PU-48 in muscle
# Experimental: Internal standard (IS, 25 μL) was added to 50 μL plasma, urine, or bile sample in a clean tube, placed into a water bath at 37 °C, and dried under a gentle stream of nitrogen gas, followed by the addition of 0.5 mL of ethyl acetate for liquid-liquid extraction. The mixture was shaken by a vortex mixer for 3 min, and then centrifuged at 8000 rpm (4200× g) for 10 min at 4 °C. After centrifugation, the upper organic phase was transferred into a clean centrifuge tube and then dried it again. […]
assayEndpoint: concentration at 12 h

According to the records, this compound COC(=O)c1sc2nc3ccc(OC)cc3cc2c1N [PU-48] displays concentration at 12 h of 2 ng/g

----------
# procedureDetails: Tissue distribution after single oral PU-48 SNEDDS
# Format: in vivo
# cond: liver; 6 h, rat, oral PU-48 SNEDDS 12 mg/kg; read-out: Concentration of PU-48 in liver
assayEndpoint: concentration at 6 h (ng/g)
API: value field is a number in ng/g; no unit string.

Notebook: COC(=O)c1sc2nc3ccc(OC)cc3cc2c1N [PU-48] , concentration at 6 h read as 42.7

----------
# procedureDetails: Plasma pharmacokinetics after single oral PU-48 SNEDDS
# Format: in vivo, rat
# cond: rat plasma, oral PU-48 SNEDDS 3 mg/kg, n=6
assayEndpoint: AUC(0-t)
A complete answer gives the number followed by the unit.

// sample COC(=O)c1sc2nc3ccc(OC)cc3cc2c1N [PU-48] , its AUC(0-t) was 60 ng·h/mL

----------
# procedureDetails: Plasma pharmacokinetics after single oral PU-48 SNEDDS
# Assay type: in vivo, rat
# cond: plasma; 6 h, rat, oral PU-48 SNEDDS 3 mg/kg
assayEndpoint: concentration at 6 h (ng/mL)
Field: numeric (ng/mL). Do not append units.

Quick note, concentration at 6 h for `COC(=O)c1sc2nc3ccc(OC)cc3cc2c1N` landed at 0.3

----------
# procedureDetails: Tissue distribution after single oral PU-48 SNEDDS
# Assay type: in vivo
# cond: fat; 24 h, rat, oral PU-48 SNEDDS 12 mg/kg; read-out: Concentration of PU-48 in fat
assayEndpoint: concentration at 24 h (ng/g)
Response body: numeric value in ng/g, unit text excluded.

The compound `COC(=O)c1sc2nc3ccc(OC)cc3cc2c1N` showed concentration at 24 h equal to 0.7

----------
# procedureDetails: Plasma pharmacokinetics after single oral PU-48 SNEDDS
# Format: in vivo, rat
# cond: rat plasma, oral PU-48 SNEDDS 6 mg/kg, n=6
assayEndpoint: Cmax
The answer should read as a number with its unit following.

Per the record, COC(=O)c1sc2nc3ccc(OC)cc3cc2c1N [PU-48] has Cmax of 52.9 ng/mL

----------
# procedureDetails: Plasma pharmacokinetics after single oral PU-48 SNEDDS
# Format: in vivo, rat
# cond: rat plasma, oral PU-48 SNEDDS 3 mg/kg, n=6
assayEndpoint: AUC(0-inf) (ng·h/mL)
Please respond with the number in ng·h/mL and leave the unit unwritten.

For record COC(=O)c1sc2nc3ccc(OC)cc3cc2c1N [PU-48] the listed AUC(0-inf) is 60.5

----------
# procedureDetails: Tissue distribution after single oral PU-48 SNEDDS
# Format: in vivo
# cond: heart; 24 h, rat, oral PU-48 SNEDDS 12 mg/kg; read-out: Concentration of PU-48 in heart
assayEndpoint: concentration at 24 h (ng/g)
Return type: number; implicit unit ng/g.

Lab note: `COC(=O)c1sc2nc3ccc(OC)cc3cc2c1N` gave concentration at 24 h of 0.5

----------
# procedureDetails: Plasma pharmacokinetics after single oral PU-48 SNEDDS
# Type: in vivo, rat
# cond: plasma; 8 h, rat, oral PU-48 SNEDDS 3 mg/kg
assayEndpoint: concentration at 8 h (ng/mL)
Give just the number in ng/mL; leave the unit off.

Sure, the documented concentration at 8 h for `COC(=O)c1sc2nc3ccc(OC)cc3cc2c1N` is 0.5

----------
# procedureDetails: Plasma pharmacokinetics after single oral PU-48 SNEDDS
# Format: in vivo, rat
# cond: plasma; 24 h, rat, oral PU-48 SNEDDS 6 mg/kg
assayEndpoint: concentration at 24 h
Number plus unit, in that order.

# concentration at 24 h of `COC(=O)c1sc2nc3ccc(OC)cc3cc2c1N` = 0.3 ng/mL

----------
# procedureDetails: Plasma pharmacokinetics after single oral PU-48 SNEDDS
# Type: in vivo, rat
# cond: plasma; 2 h, rat, oral PU-48 SNEDDS 6 mg/kg
assayEndpoint: concentration at 2 h (ng/mL)
Provide the reading as a plain figure in ng/mL.

Lab note: measured concentration at 2 h of `COC(=O)c1sc2nc3ccc(OC)cc3cc2c1N` was 16.8

----------
# procedureDetails: Tissue distribution after single oral PU-48 SNEDDS
# Type: in vivo
# cond: liver; 1 h, rat, oral PU-48 SNEDDS 12 mg/kg; read-out: Concentration of PU-48 in liver
# Description: Internal standard (IS, 25 μL) was added to 50 μL plasma, urine, or bile sample in a clean tube, placed into a water bath at 37 °C, and dried under a gentle stream of nitrogen gas, followed by the addition of 0.5 mL of ethyl acetate for liquid-liquid extraction. The mixture was shaken by a vortex mixer for 3 min, and then centrifuged at 8000 rpm (4200× g) for 10 min at 4 °C. After centrifugation, the upper organic phase was transferred into a clean centrifuge tube and then dried it again. […]
assayEndpoint: concentration at 1 h (ng/g)
Express your answer in ng/g, writing the number without its unit.

Item: COC(=O)c1sc2nc3ccc(OC)cc3cc2c1N [PU-48] | concentration at 1 h: 534

----------
# procedureDetails: Tissue distribution after single oral PU-48 SNEDDS
# Type: in vivo
# cond: plasma; 1 h, rat, oral PU-48 SNEDDS 12 mg/kg; read-out: Concentration of PU-48 in plasma
assayEndpoint: concentration at 1 h (ng/mL)
State just the number; it will be interpreted in ng/mL.

According to the records, this compound `COC(=O)c1sc2nc3ccc(OC)cc3cc2c1N` displays concentration at 1 h of 119

----------
# procedureDetails: Tissue distribution after single oral PU-48 SNEDDS
# Assay type: in vivo
# cond: muscle; 6 h, rat, oral PU-48 SNEDDS 12 mg/kg; read-out: Concentration of PU-48 in muscle
assayEndpoint: concentration at 6 h (ng/g)
Give the quantity in ng/g, number only.

Record `COC(=O)c1sc2nc3ccc(OC)cc3cc2c1N` , field concentration at 6 h: 4.5
